- experimentalTarget: UniProtKB P34998
- measurementProtocol: Inhibition of Corticotropin releasing factor receptor 1-stimulated cAMP production
attributeMeasured: IC50 (nM)

1. CCCN(CC1CC1)c1cc(C)nc2c(-c3ccc(Cl)cc3Cl)cccc12; 16

A: COCCN(CCOC)c1cc(C)nc2c(-c3ccc(Cl)cc3Cl)cccc12
B: CCCCN(CC)c1cc(C)nc2c(-c3ccc(Cl)cc3Cl)cccc12
Given A and B , report the one with the higher recorded IC50. Refer to your chosen item by its label in the answer.
B

###

Target protein (sequence): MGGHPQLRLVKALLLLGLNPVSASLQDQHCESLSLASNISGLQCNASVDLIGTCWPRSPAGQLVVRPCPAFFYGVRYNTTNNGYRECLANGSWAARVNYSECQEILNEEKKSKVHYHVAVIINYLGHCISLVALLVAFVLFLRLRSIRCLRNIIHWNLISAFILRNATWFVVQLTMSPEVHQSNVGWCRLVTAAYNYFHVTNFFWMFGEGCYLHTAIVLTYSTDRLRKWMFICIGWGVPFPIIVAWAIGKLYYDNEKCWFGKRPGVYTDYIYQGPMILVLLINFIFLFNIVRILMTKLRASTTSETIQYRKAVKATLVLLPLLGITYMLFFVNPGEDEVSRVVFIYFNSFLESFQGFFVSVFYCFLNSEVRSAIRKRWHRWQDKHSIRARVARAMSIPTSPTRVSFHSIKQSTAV
attributeMeasured: Ki (nM)

1: CCCN(CCC)c1cc(C)nc2c(-c3ccc(OC)cc3)cccc12
2: CCCCN(CC)c1cc(C)nc2c(-c3ccc(Cl)cc3Cl)cccc12
Smaller Ki value? Options are 1 and 2 Refer to your chosen item by its label in the answer.
2
(2: 5.7 nM, 1: 52 nM)

###

- measurementProtocol: pKa value was determined
- Format: physicochemical
attributeMeasured: pKa
When you answer, write just the number.

Any idea what its pKa is? The molecule is CCCN(CCC)c1cc(C)nc2c(-c3cnc(N(C)C)cc3C)c(C)nn12
7.1
